SYSTEM_TESTED: MERTK (UniProt Q12866)
Sequence (Q12866 whole entry, looked up): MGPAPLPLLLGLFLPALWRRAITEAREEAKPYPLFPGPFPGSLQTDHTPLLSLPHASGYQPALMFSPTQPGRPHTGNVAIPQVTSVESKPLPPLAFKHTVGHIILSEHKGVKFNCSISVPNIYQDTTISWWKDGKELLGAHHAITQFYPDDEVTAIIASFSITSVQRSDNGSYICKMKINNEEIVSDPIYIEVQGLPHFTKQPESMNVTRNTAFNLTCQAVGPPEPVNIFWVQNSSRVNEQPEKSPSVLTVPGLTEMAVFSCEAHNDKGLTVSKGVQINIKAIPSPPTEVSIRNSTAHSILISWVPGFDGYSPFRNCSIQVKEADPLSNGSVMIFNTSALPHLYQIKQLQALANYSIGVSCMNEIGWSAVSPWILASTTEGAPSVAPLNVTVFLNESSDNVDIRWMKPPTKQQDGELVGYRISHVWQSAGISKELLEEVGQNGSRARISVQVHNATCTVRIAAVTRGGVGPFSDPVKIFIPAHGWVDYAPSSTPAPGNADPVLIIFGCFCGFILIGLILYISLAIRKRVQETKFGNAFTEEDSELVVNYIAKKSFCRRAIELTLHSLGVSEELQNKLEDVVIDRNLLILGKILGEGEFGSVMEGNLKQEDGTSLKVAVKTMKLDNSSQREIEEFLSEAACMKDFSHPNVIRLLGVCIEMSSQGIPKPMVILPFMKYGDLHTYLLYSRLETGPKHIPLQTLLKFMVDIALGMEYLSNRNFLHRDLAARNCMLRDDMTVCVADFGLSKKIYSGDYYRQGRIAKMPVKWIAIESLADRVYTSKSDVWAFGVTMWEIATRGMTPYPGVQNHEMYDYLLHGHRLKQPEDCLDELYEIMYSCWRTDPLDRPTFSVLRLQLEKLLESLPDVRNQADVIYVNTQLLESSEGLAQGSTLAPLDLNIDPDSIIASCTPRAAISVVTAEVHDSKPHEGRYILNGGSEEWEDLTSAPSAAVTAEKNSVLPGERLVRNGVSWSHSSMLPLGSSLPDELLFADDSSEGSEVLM
ASSAY_PROTOCOL: phosphorylation enrichment, bacterial display (enrichment ratio); higher = better substrate or ligand; peptides without Tyr show the background;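 note: 11-residue human phosphosite peptides and single-mutation variants displayed on the E. coli surface, counted by deep sequencing, each peptide's frequency after selection divided by its frequency in the unselected input library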;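 note: frequency after pTyr selection over input frequency; kinase dosed for 20-30% of maximal phosphorylation in three min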
Dear colleague, classification is by phosphorylation enrichment, with ranges listed here: interval 1 = under 0.5, interval 2 = from 0.5 up to 0.9, interval 3 = 0.9 and over

Consider the following illustrative entries.
[[record]]
query_sequence = "SIDLGYHKDLQ [NF1_Y1169_G1166D]"
group = "interval 2"

[[record]]
query_sequence = "EWRSPYGLTPR [GRIN3B_Y601]"
group = "interval 1"

[[record]]
query_sequence = "VTNHIYTWVDP [DFNB31_Y234]"
group = "interval 3"

[[record]]
query_sequence = "GDGRFYMKEAI [PGM1_Y66]"
group = "interval 1"

[[record]]
query_sequence = "QCQLKYSETPF [SIX6OS1_Y129_Y125C]"
group = "interval 2"


Query: Just checking, what class would you give SVTCTYSPALH [TP53_Y126_N131H] here?
Response: interval 1

Query: Just checking, what class would you give LAARFYNWVCF [FLT4_Y1231_S1235C_YF] here?
Response: interval 3

Query: Just checking, what class would you give MANYMYKAGPS [MAML2_Y515] here?
Response: interval 2

Query: Just checking, what class would you give VQVAYYTMMMN [SPATA17_Y84] here?
Response: interval 3

Query: Just checking, what class would you give GRTPLYMDRQG [AGXT_Y194_G190R] here?
Response: interval 1

Query: Just checking, what class would you give CTTIQYNFMCN [TP53_Y234_H233Q_YF] here?
Response: interval 1

Query: Just checking, what class would you give PLGPLYASSNT [INSR_Y992_P997T] here?
Response: interval 3

Query: Just checking, what class would you give SYCYRYRCAAR [SUMF1_Y344] here?
Response: interval 2

----------
SYSTEM_TESTED: Jak2 (UniProt O60674)
Sequence (O60674 whole entry, looked up): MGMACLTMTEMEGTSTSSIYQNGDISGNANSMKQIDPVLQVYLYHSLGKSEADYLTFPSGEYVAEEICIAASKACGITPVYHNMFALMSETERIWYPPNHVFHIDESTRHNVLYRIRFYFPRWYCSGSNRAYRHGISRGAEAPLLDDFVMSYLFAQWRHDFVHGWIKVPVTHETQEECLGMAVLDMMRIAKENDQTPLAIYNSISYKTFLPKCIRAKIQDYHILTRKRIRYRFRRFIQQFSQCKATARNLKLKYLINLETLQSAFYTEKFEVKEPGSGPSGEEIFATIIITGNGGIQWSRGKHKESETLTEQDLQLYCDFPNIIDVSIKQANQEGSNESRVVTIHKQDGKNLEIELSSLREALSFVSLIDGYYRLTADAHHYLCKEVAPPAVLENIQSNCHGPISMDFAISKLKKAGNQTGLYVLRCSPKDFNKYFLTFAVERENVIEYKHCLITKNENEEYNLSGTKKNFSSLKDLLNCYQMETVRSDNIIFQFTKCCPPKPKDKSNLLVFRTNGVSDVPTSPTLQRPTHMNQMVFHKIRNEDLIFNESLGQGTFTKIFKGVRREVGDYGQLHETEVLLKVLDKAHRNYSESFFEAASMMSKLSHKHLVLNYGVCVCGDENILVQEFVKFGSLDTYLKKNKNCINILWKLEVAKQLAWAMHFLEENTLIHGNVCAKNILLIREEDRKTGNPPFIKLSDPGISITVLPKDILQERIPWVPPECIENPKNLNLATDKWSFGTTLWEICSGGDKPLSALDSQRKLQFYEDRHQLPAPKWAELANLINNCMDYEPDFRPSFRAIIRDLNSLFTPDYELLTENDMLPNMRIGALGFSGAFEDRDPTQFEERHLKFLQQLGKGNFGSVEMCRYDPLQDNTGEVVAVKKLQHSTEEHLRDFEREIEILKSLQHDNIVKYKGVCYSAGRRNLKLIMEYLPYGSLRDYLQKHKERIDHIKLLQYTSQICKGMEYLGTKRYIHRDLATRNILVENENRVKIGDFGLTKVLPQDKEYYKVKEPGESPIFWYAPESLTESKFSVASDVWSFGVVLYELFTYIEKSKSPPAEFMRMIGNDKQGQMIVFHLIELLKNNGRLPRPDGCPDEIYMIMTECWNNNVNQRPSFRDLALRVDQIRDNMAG
ASSAY_PROTOCOL: phosphorylation enrichment, bacterial display (enrichment ratio); higher = better substrate or ligand; peptides without Tyr show the background
PROPERTY_NAME: phosphorylation enrichment

[[record]]
query_sequence = "RVLHNYLVWCV [ECEL1_Y400_R404C]"
system_tested = "Jak2 (UniProt O60674)"
recorded_result = 1.42


The reported phosphorylation enrichment of the sequence RIFDYYSARKA [STOX1_Y858] was 1.16

The reported phosphorylation enrichment of the sequence FKDFFYCWNTF [AICDA_Y146_YF] was 1.73

----------
SYSTEM_TESTED: Fyn (UniProt P06241)
Sequence (P06241 whole entry, looked up): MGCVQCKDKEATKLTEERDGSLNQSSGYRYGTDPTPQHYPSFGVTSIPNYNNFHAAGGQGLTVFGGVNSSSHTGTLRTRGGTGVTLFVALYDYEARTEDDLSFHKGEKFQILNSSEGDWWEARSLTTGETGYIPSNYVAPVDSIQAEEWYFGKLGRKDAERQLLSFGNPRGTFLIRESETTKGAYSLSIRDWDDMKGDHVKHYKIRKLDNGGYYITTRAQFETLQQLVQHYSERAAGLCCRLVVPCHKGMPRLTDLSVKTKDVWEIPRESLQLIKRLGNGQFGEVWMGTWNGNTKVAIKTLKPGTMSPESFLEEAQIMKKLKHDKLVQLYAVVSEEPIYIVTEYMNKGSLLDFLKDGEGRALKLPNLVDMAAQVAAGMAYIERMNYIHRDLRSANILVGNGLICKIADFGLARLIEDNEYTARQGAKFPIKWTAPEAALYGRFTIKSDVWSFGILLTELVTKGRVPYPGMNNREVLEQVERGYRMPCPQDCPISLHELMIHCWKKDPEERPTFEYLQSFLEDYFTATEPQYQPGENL
ASSAY_PROTOCOL: phosphorylation enrichment, bacterial display (enrichment ratio); higher = better substrate or ligand; peptides without Tyr show the background
Note to self: values exactly at 0.5 are condition met. So phosphorylation enrichment at or above 0.5 is condition met, below is condition not met.

Query: I'd appreciate it if you could say whether LYEDCYLLGTS [ASS1_Y87_R86C] has phosphorylation enrichment at least equal to 0.5.
Response: condition met

Query: I'd appreciate it if you could say whether PEPTGYSAELS [EZR_Y499_A494P] has phosphorylation enrichment at least equal to 0.5.
Response: condition met

Query: I'd appreciate it if you could say whether KLIETCFSKNF [PLP1_Y50_Y50C_YF] has phosphorylation enrichment at least equal to 0.5.
Response: condition not met

Query: I'd appreciate it if you could say whether GENTMYAQVFN [LY9_Y603] has phosphorylation enrichment at least equal to 0.5.
Response: condition met

Query: I'd appreciate it if you could say whether FLTLHYDAKPQ [ANG_Y38_Q36L] has phosphorylation enrichment at least equal to 0.5.
Response: condition not met

Query: I'd appreciate it if you could say whether LPKDLYLISQM [LARP4_Y141_S137P] has phosphorylation enrichment at least equal to 0.5.
Response: condition met

Query: I'd appreciate it if you could say whether PVKDPYVMFPQ [PLEKHG2_Y489] has phosphorylation enrichment at least equal to 0.5.
Response: condition met

Query: I'd appreciate it if you could say whether PGQAAYQKVVA [HBB_Y131_V127G] has phosphorylation enrichment at least equal to 0.5.
Response: condition not met

----------
Tested on: AncSZ
ASSAY_PROTOCOL: phosphorylation enrichment, bacterial display (enrichment ratio); higher = better substrate or ligand; peptides without Tyr show the background
Listed next: entries and their corresponding phosphorylation enrichment.
Provide a numeric answer; units are not to be included.

Solved entries (count: 8):
[[record]]
query_sequence = "IPTPAYQSSPA [PDCD6IP_Y727]"
property_name = "phosphorylation enrichment"
recorded_result = 0.489

[[record]]
query_sequence = "GRVLGYGAFGK [FLT4_Y853]"
property_name = "phosphorylation enrichment"
recorded_result = 0.431

[[record]]
query_sequence = "EPAVLYNLKDR [MYH7_Y103]"
property_name = "phosphorylation enrichment"
recorded_result = 0.722

[[record]]
query_sequence = "VSYGEYRYRSV [CFTR_Y515_D513G]"
property_name = "phosphorylation enrichment"
recorded_result = 0.688

[[record]]
query_sequence = "SSNLFYRWLTA [CNGA3_Y169_YF]"
property_name = "phosphorylation enrichment"
recorded_result = 1.09

[[record]]
query_sequence = "RLEGVYGNNID [PTEN_Y46_R47G]"
property_name = "phosphorylation enrichment"
recorded_result = 0.404

[[record]]
query_sequence = "KIVFVYVKKRS [DNAI2_Y7_E2K_YF]"
property_name = "phosphorylation enrichment"
recorded_result = 1.06

[[record]]
query_sequence = "MKSIKYMDKEI [CCDC60_Y41]"
property_name = "phosphorylation enrichment"
recorded_result = 0.578


The reported phosphorylation enrichment of the sequence PGAPAYRVLME [MYO5A_Y1245] was 0.592

The reported phosphorylation enrichment of the sequence KDHPDYKFQLR [SOX10_Y171_P175L_YF] was 0.798

The reported phosphorylation enrichment of the sequence LPKDLYLISQM [LARP4_Y141_S137P] was 2.15

The reported phosphorylation enrichment of the sequence LEQGEYALRSH [HADHB_Y244_D242G] was 0.935

The reported phosphorylation enrichment of the sequence DAVCYYRMENA [NPHS2_Y195_I192V] was 1.9

The reported phosphorylation enrichment of the sequence GAAMLYFPSVS [GPR143_Y177_YF] was 0.613

----------
SYSTEM_TESTED: Fes (UniProt P07332)
Sequence (P07332 whole entry, looked up): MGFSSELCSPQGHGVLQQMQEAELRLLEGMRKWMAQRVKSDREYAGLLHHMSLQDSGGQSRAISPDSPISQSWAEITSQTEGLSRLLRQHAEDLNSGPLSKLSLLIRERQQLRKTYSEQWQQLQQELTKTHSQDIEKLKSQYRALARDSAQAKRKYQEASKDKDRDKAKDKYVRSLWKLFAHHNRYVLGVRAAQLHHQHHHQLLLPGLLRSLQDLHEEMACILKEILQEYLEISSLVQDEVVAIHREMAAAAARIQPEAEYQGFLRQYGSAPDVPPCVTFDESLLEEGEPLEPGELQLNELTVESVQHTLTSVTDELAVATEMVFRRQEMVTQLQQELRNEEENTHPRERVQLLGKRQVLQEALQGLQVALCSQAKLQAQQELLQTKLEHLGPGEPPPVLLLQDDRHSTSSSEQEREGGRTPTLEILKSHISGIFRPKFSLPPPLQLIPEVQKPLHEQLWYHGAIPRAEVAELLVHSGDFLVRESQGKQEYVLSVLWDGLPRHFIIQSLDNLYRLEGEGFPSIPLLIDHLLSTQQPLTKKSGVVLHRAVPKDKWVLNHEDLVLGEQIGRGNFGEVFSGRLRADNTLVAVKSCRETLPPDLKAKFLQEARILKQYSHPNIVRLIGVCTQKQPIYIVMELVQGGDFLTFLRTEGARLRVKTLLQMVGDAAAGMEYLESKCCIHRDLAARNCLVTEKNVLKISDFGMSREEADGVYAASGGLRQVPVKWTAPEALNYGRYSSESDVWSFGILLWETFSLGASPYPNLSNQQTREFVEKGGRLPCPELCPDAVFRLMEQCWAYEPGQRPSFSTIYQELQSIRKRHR
ASSAY_PROTOCOL: phosphorylation enrichment, bacterial display (enrichment ratio); higher = better substrate or ligand; peptides without Tyr show the background
Note to self: values exactly at 0.9 are yes (1). So phosphorylation enrichment at or above 0.9 is yes (1), below is no (0).

Consider the following illustrative entries.
[[record]]
query_sequence = "CTTTHYNFMCN [TP53_Y234_I232T_YF]"
group = "no (0)"

[[record]]
query_sequence = "FLNSSYINIST [IL23R_Y178_T175N_YF]"
group = "no (0)"

[[record]]
query_sequence = "SYSGEYGSGGG [ZG16_Y30_G32S]"
group = "no (0)"

[[record]]
query_sequence = "PIFEGYGLPHA [ACTA1_Y171_A172G_YF]"
group = "no (0)"

[[record]]
query_sequence = "FSVDGYDSSVR [KCNQ1_Y461]"
group = "no (0)"


Query: I'd appreciate it if you could say whether CTTILYNFMCN [TP53_Y234_H233L_YF] has phosphorylation enrichment at least equal to 0.9.
Response: yes (1)

Query: I'd appreciate it if you could say whether GIMEEYQLPYY [BMPR1A_Y453_V450M] has phosphorylation enrichment at least equal to 0.9.
Response: yes (1)

----------
SYSTEM_TESTED: Hck (UniProt P08631)
Sequence (P08631 whole entry, looked up): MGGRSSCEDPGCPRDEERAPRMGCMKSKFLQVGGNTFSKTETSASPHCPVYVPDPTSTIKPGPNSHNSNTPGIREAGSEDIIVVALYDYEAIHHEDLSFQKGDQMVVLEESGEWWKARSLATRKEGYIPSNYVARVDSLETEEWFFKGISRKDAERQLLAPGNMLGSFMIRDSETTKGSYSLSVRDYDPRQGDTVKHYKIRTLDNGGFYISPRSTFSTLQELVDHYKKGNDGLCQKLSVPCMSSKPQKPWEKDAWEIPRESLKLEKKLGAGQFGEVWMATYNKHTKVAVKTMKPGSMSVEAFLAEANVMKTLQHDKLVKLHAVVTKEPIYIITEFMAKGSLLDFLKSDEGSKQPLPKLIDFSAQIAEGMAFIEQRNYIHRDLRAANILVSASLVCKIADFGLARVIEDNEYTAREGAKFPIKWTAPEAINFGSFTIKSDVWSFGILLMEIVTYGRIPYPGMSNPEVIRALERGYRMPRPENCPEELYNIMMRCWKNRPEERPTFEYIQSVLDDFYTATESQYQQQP
ASSAY_PROTOCOL: phosphorylation enrichment, bacterial display (enrichment ratio); higher = better substrate or ligand; peptides without Tyr show the background
Note to self: values exactly at 0.6 are yes. So phosphorylation enrichment at or above 0.6 is yes, below is no.

Consider the following illustrative entries.
[[record]]
query_sequence = "VVAHQYSFAPD [TNS3_Y601]"
group = "no"

[[record]]
query_sequence = "NDLMEYAKQHG [ASS1_Y163]"
group = "no"

[[record]]
query_sequence = "AELVRYYMEHH [PTPN11_Y80_Q79R]"
group = "yes"

[[record]]
query_sequence = "NFNPNYCFAGK [ALK_Y1096_D1091N_YF]"
group = "yes"

[[record]]
query_sequence = "SARFRYLLAEK [LDHB_Y173_M175L]"
group = "no"


Query: I'd appreciate it if you could say whether RARPPYTVAAD [ANKZF1_Y572] has phosphorylation enrichment at least equal to 0.6.
Response: no

Query: I'd appreciate it if you could say whether GSERDYTYEEL [EIF2S2_Y174] has phosphorylation enrichment at least equal to 0.6.
Response: yes

Query: I'd appreciate it if you could say whether KGEDFYYVTCH [FHL1_Y149_C150Y] has phosphorylation enrichment at least equal to 0.6.
Response: yes

Query: I'd appreciate it if you could say whether RFLERYIYNRQ [HLA-DPB1_Y57_E62Q] has phosphorylation enrichment at least equal to 0.6.
Response: yes

Query: I'd appreciate it if you could say whether IPGGIYDADLN [CST4_Y35] has phosphorylation enrichment at least equal to 0.6.
Response: yes

Query: I'd appreciate it if you could say whether FDDDDYDMDFV [BLM_Y296_T298M] has phosphorylation enrichment at least equal to 0.6.
Response: no

Query: I'd appreciate it if you could say whether AEFGLYGAMVW [VSX2_Y222_R227W_YF] has phosphorylation enrichment at least equal to 0.6.
Response: yes

Query: I'd appreciate it if you could say whether IPTPAYQSSPA [PDCD6IP_Y727] has phosphorylation enrichment at least equal to 0.6.
Response: no

Query: I'd appreciate it if you could say whether LIDTVYSSSSA [OR4C12_Y71] has phosphorylation enrichment at least equal to 0.6.
Response: yes
